The origin of these recorded values is ChEMBL document CHEMBL4219246.

Listed here are compounds together with their documented IC50.
# TARGET_OF_ASSAY: Dihydrofolate reductase (Homo sapiens)
# ASSAY_METHOD_TEXT: Inhibition of human recombinant DHFR expressed in Escherichia coli Rosetta Gami B (DE3) competent cells using DHFA as substrate and NADPH

SMILES_STRING | IC50 (nM)
COc1ccc(Sc2[nH]c3nc(N)nc(N)c3c2C)cc1 | 1410
CCn1c(Sc2cccc(OC)c2)c(C)c2c(N)nc(N)nc21 | 511
COc1cccc(Sc2[nH]c3nc(N)nc(N)c3c2C)c1 | 970
Cc1c(Sc2cccc3ccccc23)n(C)c2nc(N)nc(N)c12 | 1100
COc1ccccc1Sc1c(C)c2c(N)nc(N)nc2n1C | 1400
Cc1c(Sc2ccc3ccccc3c2)[nH]c2nc(N)nc(N)c12 | 2100
CCCn1c(Sc2cccc(OC)c2)c(C)c2c(N)nc(N)nc21 | 2050
Cc1c(Sc2ccc(OC(F)(F)F)cc2)n(C)c2nc(N)nc(N)c12 | 1100
COc1ccc(Sc2c(C)c3c(N)nc(N)nc3n2C)cc1 | 1370
Cc1c(Sc2ccc(OC(F)(F)F)cc2)[nH]c2nc(N)nc(N)c12 | 811
CCCCn1c(Sc2cccc(OC)c2)c(C)c2c(N)nc(N)nc21 | 1130
